Assembled from different publications: pIC50 for Poly [ADP-ribose] polymerase 2 (Homo sapiens, UniProt Q9UGN5).
pIC50: −log10 of the molar value.

- compound: "CNC(=O)c1ccc(N2CCN(Cc3ccc4nc(OC)c(=O)[nH]c4c3C)CC2)c(F)n1"
  boundOperator: "<"
  pIC50: 4.00
- compound: "CNC(=O)c1ccc(N2CCN(Cc3cnc4cc(OC)c(=O)[nH]c4c3)[C@H]3CC[C@H]32)cn1"
  boundOperator: "<"
  pIC50: 6.52
- compound: "CCc1cc2ncc(CN3CCN(c4ccc(C(=O)NC)nc4)[C@H]4CC[C@@H]43)cc2[nH]c1=O"
  boundOperator: "="
  pIC50: 7.40
- compound: "CCc1cc2ncc(CN3CCN(c4ccc(C(=O)NC)nc4)C4CCC43)cc2[nH]c1=O (stereo not given)"
  boundOperator: "="
  pIC50: 7.85
- compound: "CNC(=O)c1ccc(N2CCN(Cc3ccc4c([nH]c(=O)c5c(F)cnn54)c3F)CC2)c(F)n1"
  boundOperator: "="
  pIC50: 5.81
